- System Tested: CYP2C9 (Homo sapiens)
- Construct: pre-incubation of the human liver microsomes with the test compound; tissue Corning; host or cells: human liver microsomes
- Sequence (P11712 whole entry): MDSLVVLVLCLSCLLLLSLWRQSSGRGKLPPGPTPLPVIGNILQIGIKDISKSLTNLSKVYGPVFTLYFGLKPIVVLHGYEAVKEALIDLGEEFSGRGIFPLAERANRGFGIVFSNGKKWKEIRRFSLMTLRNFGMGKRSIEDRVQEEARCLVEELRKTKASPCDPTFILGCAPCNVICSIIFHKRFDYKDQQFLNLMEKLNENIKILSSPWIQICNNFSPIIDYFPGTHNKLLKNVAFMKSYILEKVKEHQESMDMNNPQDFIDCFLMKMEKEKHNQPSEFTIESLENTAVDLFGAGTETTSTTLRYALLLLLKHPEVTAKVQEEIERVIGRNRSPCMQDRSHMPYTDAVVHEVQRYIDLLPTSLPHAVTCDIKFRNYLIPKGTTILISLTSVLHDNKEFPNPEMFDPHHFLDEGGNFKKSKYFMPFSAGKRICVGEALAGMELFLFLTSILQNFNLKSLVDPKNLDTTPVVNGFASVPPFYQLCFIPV
- Experiment Notes: CYP inhibition / time-dependent inhibition, CYP2C9_Diclofenac
- Assay type: in vitro ADME
- Experimental Setup: role: inhibitor; (−)NADPH pre-incubation; substrate diclofenac; read-out: IC50 (−)NADPH CYP2C9_Diclofenac
Quantity Name: pIC50
Give only the number. pIC50 is defined as minus log10 of concentration in molar units.

# query: pIC50 of entry O=C(Cc1cncc(-n2cc(Cl)c3cc(Cl)cc(Cl)c32)c1)N[C@@H]1COC[C@H]1O [Compound 661]
4.83
